Hey, just so you know, these numbers are from ChEMBL document CHEMBL1126314.

# reported Ki; entries follow
- tgt: Thymidylate synthase (Mus musculus)
- Sequence (P07607 whole entry): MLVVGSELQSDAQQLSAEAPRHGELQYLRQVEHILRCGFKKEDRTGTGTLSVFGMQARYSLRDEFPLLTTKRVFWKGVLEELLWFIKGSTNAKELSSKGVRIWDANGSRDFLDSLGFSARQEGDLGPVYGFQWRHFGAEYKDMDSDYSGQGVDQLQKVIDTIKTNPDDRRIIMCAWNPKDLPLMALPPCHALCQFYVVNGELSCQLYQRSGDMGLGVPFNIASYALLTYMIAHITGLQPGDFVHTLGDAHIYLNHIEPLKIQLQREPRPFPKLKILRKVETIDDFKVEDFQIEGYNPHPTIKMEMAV
- protocol-summary: Compound was evaluated for competitive inhibition of recombinant mouse thymidylate synthase
Lab note: write values as number then unit, every time.

Nc1nc(O)c2c(n1)NCC(CCc1ccc(C(=O)NC(CCC(=O)O)C(=O)O)cc1)C2 (configuration not stated) :: 30 nM

# next compound below
stdin: Request - read-out Ki | tested on Thymidylate synthase (Mus musculus) | compound Nc1nc2[nH]cc(CCc3ccc(C(=O)N[C@@H](CCC(=O)O)C(=O)O)cc3)c2c(=O)[nH]1 [PEMETREXED]
stdout: 340 nM

* * *

- protocol-summary: Km was determined
- Format: ADME
observed-property: Km (µM)
All answers are understood in µM, so give the number only.

stdin: GET /values?readout=Km&item= Nc1nc2[nH]cc(CCc3ccc(C(=O)N[C@@H](CCC(=O)O)C(=O)O)cc3)c2c(=O)[nH]1 [PEMETREXED]
stdout: 0.8
